Details: in ethanol, 332.85 K

[
  {
    "ENTRY_SMILES": "Cc1c(N(C)CS(=O)(=O)[O-])c(=O)n(-c2ccccc2)n1C.O.[Na+]",
    "solubility (mole fraction)": 0.0092
  }
]

---

Details: in n-butanol, 293.15 K

[
  {
    "ENTRY_SMILES": "Cc1c(N(C)CS(=O)(=O)[O-])c(=O)n(-c2ccccc2)n1C.O.[Na+]",
    "solubility (mole fraction)": 0.0003
  }
]

---

Conditions: in acetone, 327.95 K

[
  {
    "ENTRY_SMILES": "Cc1c(N(C)CS(=O)(=O)[O-])c(=O)n(-c2ccccc2)n1C.O.[Na+]",
    "solubility (mole fraction)": 0.0005
  }
]

---

Settings: in ethanol, 318.05 K

[
  {
    "ENTRY_SMILES": "Cc1c(N(C)CS(=O)(=O)[O-])c(=O)n(-c2ccccc2)n1C.O.[Na+]",
    "solubility (mole fraction)": 0.0064
  }
]

---

Settings: in sec-butanol, 308.05 K

[
  {
    "ENTRY_SMILES": "Cc1c(N(C)CS(=O)(=O)[O-])c(=O)n(-c2ccccc2)n1C.O.[Na+]",
    "solubility (mole fraction)": 0.0006
  }
]
